assay: Plasma stability in rat plasma assessed as half life; format: ADME, cell-free
readout-type: half-life

smiles	readout-type	val
Cc1ncsc1-c1ccc([C@H](CN2CCOCC2)NC(=O)[C@@H]2C[C@@H](O)CN2C(=O)[C@@H](n2cc([C@H]3CC[C@H](CN4CCC(c5ccc6c(c5)-n5c(nc(=O)c7c(Cl)cccc75)C65CCCCC5)CC4)CC3)nn2)C(C)(C)C)cc1	half-life	> 2 h

* * *

assay: Drug uptake in tumor of human NCI-H838 cells xenografted SCID mouse model at 10 mg/kg, iv measured after 48 hrs by LC-MS/MS analysis; type: ADME, organism-based, Neoplasm; conditions: read-out: Drug uptake
Recorded concentration at 48 h for the following compounds

smiles	concentration at 48 h / ng/mL
Cc1ncsc1-c1ccc([C@H](CN2CCOCC2)NC(=O)[C@@H]2C[C@@H](O)CN2C(=O)[C@@H](n2cc([C@H]3CC[C@H](CN4CCC(c5ccc6c(c5)-n5c(nc(=O)c7c(Cl)cccc75)C65CCCCC5)CC4)CC3)nn2)C(C)(C)C)cc1	437
Cc1ncsc1-c1ccc([C@H](CN2CCOCC2)NC(=O)[C@@H]2C[C@@H](O)CN2C(=O)[C@H](C2CCOCC2)n2cc([C@H]3CC[C@H](CN4CCC(c5ccc6c(c5)-n5c(nc(=O)c7c(Cl)cccc75)C65CCCCC5)CC4)CC3)nn2)cc1	491

* * *

target: von Hippel-Lindau disease tumor suppressor/SWI/SNF-related matrix-associated actin-dependent regulator of chromatin subfamily A member 2 (Homo sapiens, UniProt P51531+P40337); assay: PROTAC activity at SMARCA2/VHL1 in human HeLa cells assessed as protein degradation by Nano-Glo HiBiT lytic detection assay; type: cell-based
Sequence (P51531 whole entry): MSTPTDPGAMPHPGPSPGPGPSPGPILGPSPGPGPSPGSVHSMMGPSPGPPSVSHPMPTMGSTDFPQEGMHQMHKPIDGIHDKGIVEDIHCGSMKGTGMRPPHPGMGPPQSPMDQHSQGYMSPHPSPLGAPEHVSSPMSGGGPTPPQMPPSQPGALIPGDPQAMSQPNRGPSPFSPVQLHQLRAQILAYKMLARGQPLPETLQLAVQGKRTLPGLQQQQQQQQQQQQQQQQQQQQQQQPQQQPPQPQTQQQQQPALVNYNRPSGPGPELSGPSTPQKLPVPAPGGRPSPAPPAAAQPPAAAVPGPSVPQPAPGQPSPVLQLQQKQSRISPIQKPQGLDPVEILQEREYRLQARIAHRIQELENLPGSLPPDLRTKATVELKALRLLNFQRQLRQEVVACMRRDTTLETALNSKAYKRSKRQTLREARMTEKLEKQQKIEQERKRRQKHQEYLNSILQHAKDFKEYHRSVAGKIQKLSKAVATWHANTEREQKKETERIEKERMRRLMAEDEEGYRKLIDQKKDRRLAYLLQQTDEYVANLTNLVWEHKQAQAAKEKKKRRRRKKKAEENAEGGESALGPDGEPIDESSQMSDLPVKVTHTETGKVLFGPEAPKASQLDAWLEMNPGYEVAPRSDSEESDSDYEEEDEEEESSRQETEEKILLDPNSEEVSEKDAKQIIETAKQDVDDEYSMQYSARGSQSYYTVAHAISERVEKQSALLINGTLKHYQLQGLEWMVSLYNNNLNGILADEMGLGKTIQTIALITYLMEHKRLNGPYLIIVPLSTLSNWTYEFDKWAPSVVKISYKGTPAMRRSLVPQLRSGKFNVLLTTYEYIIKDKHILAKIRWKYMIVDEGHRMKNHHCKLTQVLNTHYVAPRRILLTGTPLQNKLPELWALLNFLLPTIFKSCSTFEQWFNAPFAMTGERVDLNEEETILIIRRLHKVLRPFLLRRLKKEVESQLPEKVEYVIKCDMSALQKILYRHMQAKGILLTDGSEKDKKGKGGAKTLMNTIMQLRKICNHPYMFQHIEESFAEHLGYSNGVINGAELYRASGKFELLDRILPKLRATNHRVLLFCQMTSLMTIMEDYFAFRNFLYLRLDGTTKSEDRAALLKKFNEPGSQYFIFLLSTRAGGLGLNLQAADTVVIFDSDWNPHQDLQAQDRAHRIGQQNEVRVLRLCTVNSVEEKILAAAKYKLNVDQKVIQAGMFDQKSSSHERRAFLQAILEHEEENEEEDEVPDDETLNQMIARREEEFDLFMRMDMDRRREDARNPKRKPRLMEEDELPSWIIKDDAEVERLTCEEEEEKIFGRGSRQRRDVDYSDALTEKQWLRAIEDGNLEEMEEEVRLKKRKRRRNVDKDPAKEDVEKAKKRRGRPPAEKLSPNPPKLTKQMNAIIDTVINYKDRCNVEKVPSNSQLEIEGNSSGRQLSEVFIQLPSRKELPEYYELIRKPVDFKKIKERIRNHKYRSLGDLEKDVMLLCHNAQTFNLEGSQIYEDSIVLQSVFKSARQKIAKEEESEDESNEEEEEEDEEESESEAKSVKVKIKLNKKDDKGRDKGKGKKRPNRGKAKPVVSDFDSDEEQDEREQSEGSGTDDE
Sequence (P40337 whole entry): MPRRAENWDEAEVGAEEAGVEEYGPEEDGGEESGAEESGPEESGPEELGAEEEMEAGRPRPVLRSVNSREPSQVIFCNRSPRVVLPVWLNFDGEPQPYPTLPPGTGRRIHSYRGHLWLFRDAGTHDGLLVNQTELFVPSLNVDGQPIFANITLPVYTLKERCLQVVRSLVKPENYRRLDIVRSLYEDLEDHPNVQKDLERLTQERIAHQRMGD
readout-type: DC50 (nM)

smiles	readout-type	val
COCCOC[C@H](NC(=O)[C@@H]1C[C@@H](O)CN1C(=O)[C@@H](n1cc([C@H]2CC[C@H](CN3CCC(c4ccc5c(c4)-n4c(nc(=O)c6c(Cl)cccc64)C54CCCCC4)CC3)CC2)nn1)C(C)(C)C)c1ccc(-c2scnc2C)cc1	DC50	0.4
Cc1ncsc1-c1ccc([C@H](CN2CCC(C(=O)O)CC2)NC(=O)[C@@H]2C[C@@H](O)CN2C(=O)[C@@H](n2cc([C@H]3CC[C@H](CN4CCC(c5ccc6c(c5)-n5c(nc(=O)c7c(Cl)cccc75)C65CCCCC5)CC4)CC3)nn2)C(C)(C)C)cc1	DC50	111

* * *

assay: Drug uptake in tumor of human NCI-H838 cells xenografted SCID mouse model at 10 mg/kg, iv measured after 24 hrs by LC-MS/MS analysis; format: ADME, organism-based, Neoplasm; conditions: read-out: Drug uptake

smiles	concentration at 24 h / ng/mL
Cc1ncsc1-c1ccc([C@H](CN2CCOCC2)NC(=O)[C@@H]2C[C@@H](O)CN2C(=O)[C@@H](n2cc([C@H]3CC[C@H](CN4CCC(c5ccc6c(c5)-n5c(nc(=O)c7c(Cl)cccc75)C65CCCCC5)CC4)CC3)nn2)C(C)(C)C)cc1	400
COCCOC[C@H](NC(=O)[C@@H]1C[C@@H](O)CN1C(=O)[C@@H](n1cc([C@H]2CC[C@H](CN3CCC(c4ccc5c(c4)-n4c(nc(=O)c6c(Cl)cccc64)C54CCCCC4)CC3)CC2)nn1)C(C)(C)C)c1ccc(-c2scnc2C)cc1	255
COCCOCCOC[C@H](NC(=O)[C@@H]1C[C@@H](O)CN1C(=O)[C@@H](n1cc([C@H]2CC[C@H](CN3CCC(c4ccc5c(c4)-n4c(nc(=O)c6c(Cl)cccc64)C54CCCCC4)CC3)CC2)nn1)C(C)(C)C)c1ccc(-c2scnc2C)cc1	113

* * *

assay: Plasma concentration in mouse xenografted with human H838 cells at 10 mg/kg, iv single dose measured after 48 hrs by LC-MS/MS analysis; assay type: ADME, organism-based, NCI-H838
readout-type: concentration at 48 h (ng/mL)

smiles	val
Cc1ncsc1-c1ccc([C@H](CN2CCOCC2)NC(=O)[C@@H]2C[C@@H](O)CN2C(=O)[C@@H](n2cc([C@H]3CC[C@H](CN4CCC(c5ccc6c(c5)-n5c(nc(=O)c7c(Cl)cccc75)C65CCCCC5)CC4)CC3)nn2)C(C)(C)C)cc1	15

* * *

test: Metabolic stability in mouse liver microsomes assessed as half life; type: ADME, Microsome

smiles	half-life
Cc1ncsc1-c1ccc([C@H](CN2CCOCC2)NC(=O)[C@@H]2C[C@@H](O)CN2C(=O)[C@@H](n2cc([C@H]3CC[C@H](CN4CCC(c5ccc6c(c5)-n5c(nc(=O)c7c(Cl)cccc75)C65CCCCC5)CC4)CC3)nn2)C(C)(C)C)cc1	> 1 h

* * *

test: Drug uptake in tumor of mouse xenografted with human H838 cells at 10 mg/kg, iv single dose measured after 48 hrs by LC-MS/MS analysis; type: ADME, organism-based, Neoplasm, NCI-H838; details: read-out: Drug uptake

smiles	reading-unit	concentration at 48 h
Cc1ncsc1-c1ccc([C@H](CN2CCOCC2)NC(=O)[C@@H]2C[C@@H](O)CN2C(=O)[C@@H](n2cc([C@H]3CC[C@H](CN4CCC(c5ccc6c(c5)-n5c(nc(=O)c7c(Cl)cccc75)C65CCCCC5)CC4)CC3)nn2)C(C)(C)C)cc1	ng/mL	437

* * *

assay: Plasma stability in human plasma assessed as half life; assay type: ADME, cell-free

smiles	half-life
Cc1ncsc1-c1ccc([C@H](CN2CCOCC2)NC(=O)[C@@H]2C[C@@H](O)CN2C(=O)[C@@H](n2cc([C@H]3CC[C@H](CN4CCC(c5ccc6c(c5)-n5c(nc(=O)c7c(Cl)cccc75)C65CCCCC5)CC4)CC3)nn2)C(C)(C)C)cc1	> 2 h

* * *

Let's look at some compounds and their measured concentration at 48 h.
experiment: Plasma concentration in SCID mouse xenografted with human NCI-H838 cells at 10 mg/kg, iv measured after 48 hrs by LC-MS/MS analysis; format: ADME, organism-based

smiles	reading-unit	concentration at 48 h
Cc1ncsc1-c1ccc([C@H](CN2CCOCC2)NC(=O)[C@@H]2C[C@@H](O)CN2C(=O)[C@@H](n2cc([C@H]3CC[C@H](CN4CCC(c5ccc6c(c5)-n5c(nc(=O)c7c(Cl)cccc75)C65CCCCC5)CC4)CC3)nn2)C(C)(C)C)cc1	ng/mL	15
Cc1ncsc1-c1ccc([C@H](CN2CCOCC2)NC(=O)[C@@H]2C[C@@H](O)CN2C(=O)[C@H](C2CCOCC2)n2cc([C@H]3CC[C@H](CN4CCC(c5ccc6c(c5)-n5c(nc(=O)c7c(Cl)cccc75)C65CCCCC5)CC4)CC3)nn2)cc1	ng/mL	30

* * *

# reported concentration at 168 h; entries follow
experiment: Drug uptake in tumor of human NCI-H838 cells xenografted SCID mouse model at 10 mg/kg, iv measured after 168 hrs by LC-MS/MS analysis; assay type: ADME, organism-based, Neoplasm; conditions: read-out: Drug uptake
readout-type: concentration at 168 h (ng/mL)

smiles	val
Cc1ncsc1-c1ccc([C@H](CN2CCOCC2)NC(=O)[C@@H]2C[C@@H](O)CN2C(=O)[C@@H](n2cc([C@H]3CC[C@H](CN4CCC(c5ccc6c(c5)-n5c(nc(=O)c7c(Cl)cccc75)C65CCCCC5)CC4)CC3)nn2)C(C)(C)C)cc1	169
Cc1ncsc1-c1ccc([C@H](CN2CCOCC2)NC(=O)[C@@H]2C[C@@H](O)CN2C(=O)[C@H](C2CCOCC2)n2cc([C@H]3CC[C@H](CN4CCC(c5ccc6c(c5)-n5c(nc(=O)c7c(Cl)cccc75)C65CCCCC5)CC4)CC3)nn2)cc1	65

* * *

target: SWI/SNF-related matrix-associated actin-dependent regulator of chromatin subfamily A member 2 (Homo sapiens, UniProt P51531); test: Inhibition of SMARCA2 (unknown origin)
Sequence (P51531 whole entry): as the sequence (P51531 whole entry) above
pIC50: −log10 of the molar value.
Below: a set of entries, each annotated with reported pIC50.
readout-type: pIC50

> print(dat)
                                     smiles   val
1  O=c1nc2n(c3cccc(Cl)c13)-c1cc(C3CCNCC3)ccc1C21CCCCC1  7.18
2  O=c1nc2n(c3cccc(Cl)c13)-c1ccc(C3CCNCC3)cc1C21CCCCC1  7.37

* * *

assay: AUC (0 to 24hrs) in rat at 1 mg/kg, iv; assay type: ADME, organism-based; conditions: in vivo
readout-type: AUC(0-t) (ng·h/mL)

smiles	readout-type	val
Cc1ncsc1-c1ccc([C@H](CN2CCOCC2)NC(=O)[C@@H]2C[C@@H](O)CN2C(=O)[C@@H](n2cc([C@H]3CC[C@H](CN4CCC(c5ccc6c(c5)-n5c(nc(=O)c7c(Cl)cccc75)C65CCCCC5)CC4)CC3)nn2)C(C)(C)C)cc1	AUC(0-t)	753

* * *

test: Cmax in rat at 1 mg/kg, iv; assay type: ADME, organism-based; conditions: in vivo
readout-type: Cmax

smiles	readout-type	val
Cc1ncsc1-c1ccc([C@H](CN2CCOCC2)NC(=O)[C@@H]2C[C@@H](O)CN2C(=O)[C@@H](n2cc([C@H]3CC[C@H](CN4CCC(c5ccc6c(c5)-n5c(nc(=O)c7c(Cl)cccc75)C65CCCCC5)CC4)CC3)nn2)C(C)(C)C)cc1	Cmax	2420 ng/mL
